- testTarget: T1, SARS-COV-2 RBD (SARS-COV-2, UniProt P0DTC2 319-539)
- T1 construct: also called WT RBD
- assayText: ELISA, RBD coated on plate
measurementType: EC50 (ng/mL)
Could you give me the number in ng/mL? Just the number is fine.

binder: C1061 (antibody, V domains shown) VH: EVQLVESGGGLVQPGGSLRLSCAASGFTFSRYDMHWVRQGTGKGLEWVSAIGTSGDTYYPDSVKGRFTISRENAKNSLYLQMNSLRAGDTAVYYCARGGLQTTTWLFDYWGQGTLVTVSS VL: DIQMTQSPSSLSASVGDRVTITCRASQSISRYLNWYQQKPGKAPKLLIYAASSLQSGVPSRFSGSGAGTDFTLTISSLQPEDFAIYYCQQSYSNPPITFGQGTRLEIK
EC50 / ng/mL: 2.26

Please report the measured EC50 for C1057 (antibody, V domains shown) VH: QVQLVQSGAEVKKPGSSVKVSCKASGGTFTTYIISWVRQAPGQGLEWMGGISPMLGTANYAQKFQGGVTITADESTTTAYMEMSGLRSEDTAVYYCARAHMYCSDGSCYRQSGYFDSWGQGTLVTVSS VL: QSALTQPRSVSGSPGQSVTITCTGTSSNVGGYKYVSWFQQHPGKAPKFLIYDVSERSSGVPDRFSGSKSGNTASLTISGLQAEDEADYYCCSYAGKYTVVFGGGTRLTV
2.12

Please report the measured EC50 for C1013 (antibody, V domains shown) VH: QVQLVQSGVEVKKPGSSVKVSCKASGGTFTDYAFSWVRQAPGQGLEWMGGIVPIFATPDYAEKFRGRVTITADESTSTAYMELSTLKSEDTAVYYCARASLTLPIRAAPRFWFDAWGQGTLVTVSS VL: EIVMTQSPATLSVSPGERATLSCRASQGVSTHLAWYQQKPGQAPRLLIYGASTRATGIPARFSGSGSGTEFTLTISSLQSEDFAVYYCQQYHKWPPALTFGGGTKVEIK
8.92
